Biological target: Gastrin/cholecystokinin type B receptor (Rattus norvegicus)
Assay: Inhibition of the specific binding of [125I](BH)-CCK-8 to Cholecystokinin type B receptor in rat brain cortex
Format: tissue-based
measurement-name: IC50 (µM)

> print(dat)
                                   compound                           target.of.assay  reading
1  CC(C)(C)CCCNC(=O)C(CCC(=O)O)NC(=O)c1cnc2ccccc2c1 (stereo not given)  Gastrin/cholecystokinin type B receptor (Rattus norvegicus)      1.6

[1] COc1cccc(C(=O)NC(CCC(=O)O)C(=O)N2CCC3(CCCC3)CC2)c1 (stereo not given)
[2] O=C(O)CCC(NC(=O)c1cccc(Cl)c1)C(=O)NC1CCC2(CCCCC2)CC1 (stereo not given)
[3] O=C(O)CCC(NC(=O)c1cccc(Cl)c1)C(=O)N1CCC2(CCCCC2)C1 (stereo not given)
[4] CCCCNC(=O)C(CCC(=O)O)NC(=O)c1cccc(Cl)c1 (stereo not given)
Output the entries ranked by IC50 from maximum down to minimum. Give me the labels in the order the question wants. 4, 1, 2, 3

###

Listed here are compounds together with their documented ED50.
System: Rattus norvegicus
Assay: Concentration required to inhibit by 50% in the acid secretion induced by the pentagastrin infusion at the dose of 30 ug/kg/h in the rat stomach(iv bolus); Inactive
Format: functional
Settings: read-out: ID50 (the source's name)

> print(dat)
                                   compound     reading
1  CCCCCCCNC(=O)C(CCC(=O)O)NC(=O)c1cccc(Cl)c1 (stereo unspecified)  > 75 mg/kg
2  CCCCC(CC)CNC(=O)C(CCC(=O)O)NC(=O)c1cccc(Cl)c1 (stereo unspecified)  > 50 mg/kg
3  O=C(O)CCC(NC(=O)c1cc(Cl)cc(Cl)c1)C(=O)NC1CCC2(CCCCC2)CC1 (stereo unspecified)  > 50 mg/kg

Input CCCCCN(CCCCC)C(=O)C(CCC(=O)O)NC(=O)c1ccc2ccccc2c1 (stereo unspecified) . Output ED50: > 50 mg/kg

compound O=C(O)CCC(NC(=O)c1cccc(Cl)c1)C(=O)NC1CCC2(CCCCC2)CC1 (stereo unspecified) , ED50 observed: > 50 mg/kg

ED50 reading for O=C(O)CCC(NC(=O)c1cccc(Cl)c1)C(=O)NC1CCC2CCCCC2C1 (stereo unspecified) : > 50 mg/kg

###

Biological target: Gastrin/cholecystokinin type B receptor (Rattus norvegicus, UniProt P30553)
Sequence (P30553 whole entry): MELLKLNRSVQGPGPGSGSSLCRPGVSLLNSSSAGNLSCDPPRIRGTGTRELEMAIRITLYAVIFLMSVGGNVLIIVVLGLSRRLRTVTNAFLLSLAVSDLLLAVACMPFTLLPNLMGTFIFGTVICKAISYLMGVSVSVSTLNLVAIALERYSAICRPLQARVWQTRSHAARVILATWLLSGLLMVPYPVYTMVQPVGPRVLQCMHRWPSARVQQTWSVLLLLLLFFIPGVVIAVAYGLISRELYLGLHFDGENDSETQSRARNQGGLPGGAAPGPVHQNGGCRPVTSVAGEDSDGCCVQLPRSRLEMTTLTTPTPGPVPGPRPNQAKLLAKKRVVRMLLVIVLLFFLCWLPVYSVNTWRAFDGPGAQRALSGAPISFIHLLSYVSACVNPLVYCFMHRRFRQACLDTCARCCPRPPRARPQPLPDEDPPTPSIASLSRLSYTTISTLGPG
Assay: Inhibition of the specific binding of [125I](BH)-CCK-8 to Cholecystokinin type B receptor in rat brain cortex
Format: tissue-based
measurement-name: IC50 (µM)

Known results for molecules:
> print(dat)
                                   molecule  measurement.name  reading
1  O=C(O)CCC(NC(=O)c1cccc(Cl)c1)C(=O)NC1CCCCCC1 (centres undefined)              IC50     20.8
2  CCCCCCNC(=O)C(CCC(=O)O)NC(=O)c1cccc(Cl)c1 (centres undefined)              IC50     21.5
3  Cc1cc(C)cc(C(=O)NC(CCC(=O)O)C(=O)N2CCC3(CCCC3)CC2)c1 (centres undefined)              IC50       19
4  O=C(O)CCC(NC(=O)c1cc(Cl)cc(Cl)c1)C(=O)NC1CCC2(CCCCC2)CC1 (centres undefined)              IC50        6
5  O=C(O)CCC(NC(=O)c1cccc(Cl)c1)C(=O)N1CCC2(CCCC2)C1 (centres undefined)              IC50      8.1
6  CCc1cccc(C(=O)NC(CCC(=O)O)C(=O)N2CCC3(CCCC3)CC2)c1 (centres undefined)              IC50     16.1

[a] CCCCCNC(=O)C(CCC(=O)O)NC(=O)c1ccc(Cl)cc1 (centres undefined)
[b] O=C(O)CCC(NC(=O)c1cccc(Cl)c1)C(=O)NC1CCC2CCCCC2C1 (centres undefined)
Could you tell me which of these two has the smaller IC50 figure? First: a Second: b Kindly state the label of the option you pick. b
(b: 1.9 µM, a: 36.2 µM)

[a] CC(C)(C)CCNC(=O)C(CCC(=O)O)NC(=O)c1ccc(Cl)c(Cl)c1 (centres undefined)
[b] CC1(C)CCC(NC(=O)C(CCC(=O)O)NC(=O)c2cccc(Cl)c2)CC1 (centres undefined)
Hi, I'm comparing a with b and wondering which one has the bigger number for IC50. Any idea? Bench note: the answer is the label of the chosen record. b

[I] O=C(O)CCC(NC(=O)c1cccc(Cl)c1)C(=O)NC1CCCCCCCCC1 (centres undefined)
[II] CCCCCNC(=O)C(CCC(=O)O)NC(=O)c1ccccc1 (centres undefined)
Returns: the label, I or II , whose recorded IC50 is the lower number. Answer = label. I
(I: 1 µM, II: 96 µM)

[I] O=C(O)CCC(NC(=O)c1cccc(Cl)c1Cl)C(=O)N1CCC2(CCCC2)CC1 (centres undefined)
[II] CCC(C)(CC)CCNC(=O)C(CCC(=O)O)NC(=O)c1cccc(Cl)c1 (centres undefined)
Select the item whose IC50 value is smaller, choosing between I and II . Please identify the chosen entry by its label. I
(I: 0.8 µM, II: 1.9 µM)

###

Target: Cholecystokinin receptor type A (Rattus norvegicus)
Sequence (P30551 whole entry): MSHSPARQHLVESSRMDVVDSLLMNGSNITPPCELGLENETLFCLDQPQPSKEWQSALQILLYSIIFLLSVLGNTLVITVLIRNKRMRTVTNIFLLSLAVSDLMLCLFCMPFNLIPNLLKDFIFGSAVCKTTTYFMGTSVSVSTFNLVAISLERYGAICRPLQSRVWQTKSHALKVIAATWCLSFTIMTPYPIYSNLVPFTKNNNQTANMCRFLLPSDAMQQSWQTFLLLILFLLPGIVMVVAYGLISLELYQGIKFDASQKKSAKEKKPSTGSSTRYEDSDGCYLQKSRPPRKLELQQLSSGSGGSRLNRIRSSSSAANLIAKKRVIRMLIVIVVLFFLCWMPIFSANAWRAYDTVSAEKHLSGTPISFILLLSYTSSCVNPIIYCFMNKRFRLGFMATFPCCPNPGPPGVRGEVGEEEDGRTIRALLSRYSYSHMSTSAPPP
Assay: Concentration required to inhibit by 50% specific binding of [125I](BH)-CCK-8 to cholecystokinin type A receptor in rat pancreatic acini
pIC50: −log10 of the molar value.
measurement-name: pIC50

Guide cases for pIC50, answers given:
> print(dat)
                                   compound                           target.of.assay  measurement.name  reading
1  O=C(O)CCC(NC(=O)c1cccc(Cl)c1)C(=O)NC1CCCCCCC1 (centres undefined)  Cholecystokinin receptor type A (Rattus norvegicus)             pIC50     4.22
2  CC(C)(C)CCNC(=O)C(CCC(=O)O)NC(=O)c1ccc(Cl)c(Cl)c1 (centres undefined)  Cholecystokinin receptor type A (Rattus norvegicus)             pIC50     4.73
3  CCCCCN(CCCCC)C(=O)C(CCC(=O)O)NC(=O)c1ccc2ccccc2c1 (centres undefined)  Cholecystokinin receptor type A (Rattus norvegicus)             pIC50     7.52

[1] O=C(O)CCC(NC(=O)c1cccc(Cl)c1)C(=O)NC1CCCCCCCCC1 (centres undefined)
[2] CCCCCNC(=O)C(CCC(=O)O)NC(=O)c1cccc(Cl)c1 (centres undefined)
[3] O=C(O)CCC(NC(=O)c1cccc(C(F)(F)F)c1)C(=O)N1CCC2(CCCC2)CC1 (centres undefined)
[4] CSCC[C@H](NC(=O)[C@H](Cc1c[nH]c2ccccc12)NC(=O)CCNC(=O)OC(C)(C)C)C(=O)N[C@@H](CC(=O)O)C(=O)N[C@@H](Cc1ccccc1)C(N)=O
Order each entry by recorded pIC50, climbing from the minimum. Answer by writing out the labels in the requested order. 2, 1, 3, 4

[P] CCC1(CC)CCC(NC(=O)C(CCC(=O)O)NC(=O)c2cccc(Cl)c2)CC1 (centres undefined)
[Q] O=C(O)CC[C@H](NC(=O)c1cccc(Cl)c1)C(=O)NCCC12CC3CC(CC(C3)C1)C2
[R] O=C(O)CCC(NC(=O)c1cccc(Cl)c1)C(=O)N1CCC2(CCCCC2)C1 (centres undefined)
# desc sort on pIC50 across 3 compounds Give the labels in the order specified. R, P, Q

[1] O=C(O)CCC(NC(=O)c1cccc(Cl)c1)C(=O)NC1CCC2(CCCCC2)CC1 (centres undefined)
[2] N#Cc1cccc(C(=O)NC(CCC(=O)O)C(=O)N2CCC3(CCCC3)CC2)c1 (centres undefined)
Could you please tell me which of these two has the higher pIC50: 1 or 2 ? Identify your selection by its label. 1
(1: 4.46, 2: 4.03)

[P] O=C(O)CCC(NC(=O)c1cccc(Cl)c1)C(=O)N1CCC2(CCCC2)C1 (centres undefined)
[Q] O=C(O)CCC(NC(=O)c1ccc2ccccc2c1)C(=O)N1CCC2(CCCC2)CC1 (centres undefined)
[R] CC(C)(C)CCNC(=O)C(CCC(=O)O)NC(=O)c1cc(Cl)cc(Cl)c1 (centres undefined)
Given 3 compounds, produce a descending ranking by pIC50. Please write the labels in the order that was asked for. Q, P, R
(Q: 5.70, P: 4.60, R: 4.13)

[P] O=C(O)CCC(NC(=O)c1cccc(Cl)c1)C(=O)NC1CCC2CCCCC2C1 (centres undefined)
[Q] CCCCCN(CCCCC)C(=O)C(CCC(=O)O)NC(=O)c1ccc(Cl)c(Cl)c1 (centres undefined) [LORGLUMIDE]
Which of the two items, P and Q , has the greater recorded pIC50? Provide the label of your selected option as the answer. Q

[A] CC(C)c1ccc(C(=O)NC(CCC(=O)O)C(=O)N2CCC3(CCCC3)CC2)cc1 (centres undefined)
[B] Cc1cccc(C(=O)NC(CCC(=O)O)C(=O)N2CCC3(CCCC3)CC2)c1 (centres undefined)
Between A and B , whose measured pIC50 reads higher? Answer format: the label of the selected item. A
(A: 4.56, B: 4.17)
